Data origin, for the record: PubChem BioAssay (NCATS)

System: JCK
Test: qHTS profiling for inhibitors of Plasmodium falciparum proliferation (AID 504749); further: nearly all actives have a fitted effect of over 60% in size
Conditions: P. falciparum in erythrocytes, SYBR Green DNA, 72 h; series mostly up to 12.8 µM
Inconclusive results are not listed. Calls of active or inactive are those of the source. The call rests on the fitted dose curve; in most records, active means well fitted inhibition curve with a large enough effect; inconclusive means small, poorly fitted or top-dose-only effect; inactive means flat fitted curve, though single readings scatter.
// one of True (active), False (inactive), no free text

Here's what some known entries look like.
MOLECULE	CATEGORY
COc1cc2nc(N3CCN(C(=O)[C@@H]4COc5ccccc5O4)CC3)nc(N)c2cc1OC	False
CC(C)(C)NC[C@H](O)COc1cccc2c1C[C@@H](O)[C@@H](O)C2	False

Tell me the assay call for COc1ccc(CC(N)C(=O)NC2C(CO)OC(n3cnc4c(N(C)C)ncnc43)C2O)cc1 (stereo unspecified) please.
True

Tell me the assay call for `CC1=C(C(=O)O)N2C(=O)[C@@H](NC(=O)[C@@H](N)c3ccc(O)cc3)[C@@H]2SC1` please.
False

Tell me the assay call for CNC1C(OC2C(O[C@@H]3C(O)C(O)[C@@H](N=C(N)N)C(O)C3N=C(N)N)OC(C)[C@@]2(O)CO)OC(CO)C(O)C1O (stereo partly specified) please.
False

Tell me the assay call for `C=CC1=C(C(=O)O)N2C(=O)[C@@H](NC(=O)/C(=N\OCC(=O)O)c3csc(N)n3)[C@@H]2SC1` please.
False

Tell me the assay call for `COc1cc(N)c(Cl)cc1C(=O)N[C@H]1CCN(CCCOc2ccc(F)cc2)C[C@H]1OC` please.
False

---

Readings of activity, negative = inhibition for the listed compounds
Assay: qHTS profiling for inhibitors of Plasmodium falciparum proliferation (AID 504749); further: nearly all actives have a fitted effect of over 60% in size;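 on activity, negative = inhibition: 0% = DMSO vehicle and full inhibition = artemisinin control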
Settings: P. falciparum in erythrocytes, SYBR Green DNA, 72 h; at 12.8 µM (top of the series); parasite line A
Records with an inconclusive call do not appear.
Quick reminder: number only, in %, skip the unit.

So, `CCN(CC)CCOC(=O)[C@@H](Cc1cccc2ccccc12)C[C@@H]1CCCO1` ? Its activity, negative = inhibition was 5.1

So, `CO[C@H]1[C@@H](OC(N)=O)[C@H](O)[C@@H](Oc2ccc3c(O)c(NC(=O)c4ccc(O)c(CC=C(C)C)c4)c(=O)oc3c2C)OC1(C)C` ? Its activity, negative = inhibition was 4.79

So, `COc1ccc2c(c1)N(C[C@@H](C)CN(C)C)c1ccccc1S2` ? Its activity, negative = inhibition was 2.81

So, `CC(=O)[C@@H]1CC[C@@H]2[C@@H]3C[C@H](C)C4=CC(=O)CC[C@@]4(C)[C@H]3[C@H](O)C[C@]21C` ? Its activity, negative = inhibition was 0.756

---

System: CP237
Test: qHTS profiling for inhibitors of Plasmodium falciparum proliferation (AID 504749); further: nearly all actives have a fitted effect of over 60% in size
Details: P. falciparum in erythrocytes, SYBR Green DNA, 72 h; series mostly up to 12.8 µM
Inconclusive results are not listed. The source made the active and inactive calls. Calls come from the whole dose curve; as a rule, active = well fitted inhibition curve with a large enough effect; inconclusive = small, poorly fitted or top-dose-only effect; inactive = flat fitted curve, though single readings scatter.
// one of active, inactive, no free text

MOLECULE	CATEGORY
CCN[C@@H]1C[C@H](N)[C@H](O[C@H]2OC(CN)=CC[C@H]2N)[C@@H](O)[C@H]1O[C@H]1OC[C@@](C)(O)[C@@H](NC)[C@@H]1O	inactive
C1CCN2C[C@@H]3C[C@@H](CN4CCCC[C@H]34)[C@H]2C1	inactive
CNC1C(OC2C(O[C@@H]3C(O)C(O)[C@@H](N=C(N)N)C(O)C3N=C(N)N)OC(C)[C@@]2(O)CO)OC(CO)C(O)C1O (stereo partly drawn)	inactive
CCC(=O)[C@@]1(C)[C@H](C)C[C@@H]2[C@@H]3CCC4=CC(=O)C=C[C@@]4(C)[C@H]3[C@H](O)C[C@]21C	active
CC(=O)N[C@@H]1C(O)OC(CO)C(O)C1O (stereo partly drawn)	inactive

Tell me the assay call for `CC1(C)[C@@H](OC(=O)CCC(=O)O)CC[C@@]2(C)[C@H]1CC[C@@]1(C)[C@H]2C(=O)C=C2[C@H]3C[C@](C)(C(=O)O)CC[C@]3(C)CC[C@@]21C` please.
inactive

Tell me the assay call for `Cc1ccsc1/C=C\C1=NCCCN1C` please.
inactive

Tell me the assay call for NC(CCC(=O)N[C@@H](CS)C(=O)NCC(=O)O)C(=O)O (stereo partly drawn) please.
active

Tell me the assay call for `CO[C@H]1[C@@H](OC(N)=O)[C@H](O)[C@@H](Oc2ccc3c(O)c(NC(=O)c4ccc(O)c(CC=C(C)C)c4)c(=O)oc3c2C)OC1(C)C` please.
inactive

Tell me the assay call for `Cc1ncc([N+](=O)[O-])n1C[C@H](O)CCl` please.
inactive

Tell me the assay call for CCCCC[C@H](O)/C=C\[C@H]1[C@H](C/C=C\CCCC(=O)O)[C@@H](O)C[C@H]1O (tested in a mixture with another compound) please.
inactive

Tell me the assay call for `C[C@H]1CS(=O)(=O)CCN1/N=C\c1ccc([N+](=O)[O-])o1` please.
inactive

Tell me the assay call for `O=C(N/N=C\c1ccc([N+](=O)[O-])o1)c1ccc(O)cc1` please.
active

---

Readings of Potency for the listed compounds
Target: Cytochrome P450 2D6 (Homo sapiens) (UniProt P10635)
Sequence (P10635 whole entry, looked up): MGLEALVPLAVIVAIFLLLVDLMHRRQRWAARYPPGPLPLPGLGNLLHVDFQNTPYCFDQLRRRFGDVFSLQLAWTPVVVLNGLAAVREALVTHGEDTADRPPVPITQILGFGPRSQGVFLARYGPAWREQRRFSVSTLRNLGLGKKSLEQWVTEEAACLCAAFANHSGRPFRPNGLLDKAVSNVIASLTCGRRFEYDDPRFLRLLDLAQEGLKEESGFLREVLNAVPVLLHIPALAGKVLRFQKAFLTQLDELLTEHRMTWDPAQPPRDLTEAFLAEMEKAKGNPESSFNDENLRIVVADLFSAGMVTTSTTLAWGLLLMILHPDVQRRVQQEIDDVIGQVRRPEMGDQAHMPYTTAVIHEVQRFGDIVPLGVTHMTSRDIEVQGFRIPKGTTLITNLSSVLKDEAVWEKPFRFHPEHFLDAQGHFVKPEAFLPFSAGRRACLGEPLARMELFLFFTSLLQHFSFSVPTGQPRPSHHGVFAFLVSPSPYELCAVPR
Assay: Cytochrome P450 family 2 subfamily D member 6 (CYP2D6) small molecule antagonists: luciferase biochemical (cell-free) qHTS assay (AID 1645840); further: potency means the concentration at half of the fitted maximal effect; nearly all actives have a fitted effect of over 55% in size
Conditions: P450-Glo CYP2D6 enzyme, luciferin luminescence, 1 h; series mostly up to 57.4 µM
Inconclusive results are not listed. Activity calls are given as the source filed them. The call rests on the fitted dose curve; in most records, active means well fitted inhibition curve with a large enough effect in the repeat runs; inconclusive means weak or mixed curves; inactive means flat fitted curve, though single readings scatter.

Some solved cases for reference:
CCc1ccc(-n2c(SCc3ccccc3Cl)nc3[nH]ncc3c2=O)cc1 15.1 µM (active)
NC(=O)c1ccc(Cc2c(-c3cccc(-c4ccccc4)c3)[nH]n(-c3nc(C(=O)O)cs3)c2=O)cc1 23.9 µM (active)

Please turn your attention to the following entry.
So, `CC(C)(C)c1ccc(S(=O)(=O)c2cnc(SCC(=O)Nc3ccc(F)c(Cl)c3)[nH]c2=O)cc1` ? Its Potency was 16.9 µM (active)

---

System: ATS95
Test: qHTS profiling for inhibitors of Plasmodium falciparum proliferation (AID 504749); further: nearly all actives have a fitted effect of over 60% in size
Details: P. falciparum in erythrocytes, SYBR Green DNA, 72 h; series mostly up to 12.8 µM
Inconclusive results are not listed. Calls of active or inactive are those of the source. The call rests on the fitted dose curve; in most records, active means well fitted inhibition curve with a large enough effect; inconclusive means small, poorly fitted or top-dose-only effect; inactive means flat fitted curve, though single readings scatter.
// one of active, inactive, no free text

Here's what some known entries look like.
COMPOUND	CATEGORY
CCC(C)(C)C(=O)O[C@@H]1C[C@H](C)C=C2C=C[C@H](C)[C@@H](CC[C@H]3C[C@@H](O)CC(=O)O3)[C@H]21	inactive
CO[C@]12C(COC(N)=O)C3=C(C(=O)C(C)=C(N)C3=O)N1CC1NC12 (some centres not stated)	active

Tell me the assay call for `C[C@H]1CC[C@]2(OC1)O[C@@H]1C[C@@H]3[C@@H]4CC[C@H]5C[C@@H](O)CC[C@]5(C)[C@@H]4CC(=O)[C@@]3(C)[C@H]1[C@@H]2C` please.
inactive

---

Molecular target: Rap guanine nucleotide exchange factor 4 (Homo sapiens) (UniProt Q8WZA2)
Sequence (Q8WZA2 whole entry, looked up): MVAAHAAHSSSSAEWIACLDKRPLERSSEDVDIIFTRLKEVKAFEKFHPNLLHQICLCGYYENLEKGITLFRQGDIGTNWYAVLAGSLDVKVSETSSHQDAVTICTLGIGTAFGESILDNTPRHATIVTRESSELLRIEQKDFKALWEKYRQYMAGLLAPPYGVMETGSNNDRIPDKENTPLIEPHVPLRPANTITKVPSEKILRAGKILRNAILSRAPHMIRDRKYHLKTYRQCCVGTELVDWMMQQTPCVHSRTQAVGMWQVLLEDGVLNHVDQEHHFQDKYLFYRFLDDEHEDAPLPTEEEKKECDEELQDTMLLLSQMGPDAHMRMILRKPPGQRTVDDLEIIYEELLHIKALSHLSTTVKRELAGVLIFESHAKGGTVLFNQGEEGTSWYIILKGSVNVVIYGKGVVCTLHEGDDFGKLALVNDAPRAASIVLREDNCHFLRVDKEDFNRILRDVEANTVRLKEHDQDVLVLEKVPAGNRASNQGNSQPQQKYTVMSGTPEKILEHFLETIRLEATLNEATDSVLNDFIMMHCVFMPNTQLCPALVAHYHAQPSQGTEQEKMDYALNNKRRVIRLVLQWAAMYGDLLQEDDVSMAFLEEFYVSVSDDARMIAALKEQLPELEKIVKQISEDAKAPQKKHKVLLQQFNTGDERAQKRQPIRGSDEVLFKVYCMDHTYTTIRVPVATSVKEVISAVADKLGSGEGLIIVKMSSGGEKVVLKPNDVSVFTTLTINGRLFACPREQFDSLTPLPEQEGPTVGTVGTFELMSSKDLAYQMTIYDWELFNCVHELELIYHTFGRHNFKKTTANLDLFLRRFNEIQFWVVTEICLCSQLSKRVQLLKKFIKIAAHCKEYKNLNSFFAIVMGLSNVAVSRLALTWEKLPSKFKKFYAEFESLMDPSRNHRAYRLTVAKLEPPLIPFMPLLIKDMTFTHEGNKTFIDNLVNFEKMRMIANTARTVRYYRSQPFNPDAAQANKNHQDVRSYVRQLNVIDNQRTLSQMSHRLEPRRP
Assay: Confirmatory qHTS for antagonist of cAMP-regulated guanine nucleotide exchange factor 4 (EPAC2) (AID 1645885); further: nearly all actives have a fitted effect of over 25% in size; further: potency means the concentration at half of the fitted maximal effect
Settings: EPAC2 Rap1B-BODIPY-GDP exchange fluorescence, biochemical; series mostly up to 12.7 µM
Inconclusive results are not listed. Calls of active or inactive are those of the source. The call rests on the fitted dose curve; in most records, active means well fitted inhibition curve with a large enough effect; inconclusive means small, poorly fitted or top-dose-only effect; inactive means no such curve, though single readings can be large or run the other way.
ENDPOINT_LABEL: Potency

Some solved cases for reference:
COMPOUND	Potency
COC(=O)c1ccc(CNC(=O)/C=C/[C@H]2O[C@@H](n3cc(C)c(=O)[nH]c3=O)C[C@@H]2O)cc1	inactive
O=C(Cn1cc(SCc2ccc(Cl)cc2)c2ccccc21)N1CCCC1	inactive
CCN(CC)c1ccc2cc(-c3nnc(-c4ccccc4)o3)c(=O)oc2c1	4.26 µM (active)
Cc1cc(C(=O)COC(=O)C2COc3ccccc3O2)c(C)n1CC1CCCO1 (stereo unspecified)	inactive
CCCC(=O)Nc1nnc(SCc2cc(=O)c3ccc(C)cc3[nH]2)s1	inactive

Readout Potency for `O=C(OCC(=O)N1CCCC1=O)c1cc(Cl)ccc1O` , test system Rap guanine nucleotide exchange factor 4 (Homo sapiens) (UniProt Q8WZA2), was inactive

Readout Potency for COC(=O)C1=NNCC12CC(=O)N(c1ccc(Br)cc1)C2=O (stereo unspecified) , test system Rap guanine nucleotide exchange factor 4 (Homo sapiens) (UniProt Q8WZA2), was inactive

Readout Potency for `COc1ccc(CCNC(=O)CCCCCn2c(SCC(N)=O)nc3cc4c(cc3c2=O)OCO4)cc1OC` , test system Rap guanine nucleotide exchange factor 4 (Homo sapiens) (UniProt Q8WZA2), was inactive

Readout Potency for `CN(C)C(=O)c1cccc(-c2cnc3c(NC=O)cc(-c4ccc(F)cc4)cn23)c1` , test system Rap guanine nucleotide exchange factor 4 (Homo sapiens) (UniProt Q8WZA2), was inactive

Readout Potency for `CCCCN(C(=O)CSc1n[nH]c(-c2ccc(C)cc2)n1)c1c(N)n(CCCC)c(=O)[nH]c1=O` , test system Rap guanine nucleotide exchange factor 4 (Homo sapiens) (UniProt Q8WZA2), was inactive

Readout Potency for `COc1ccc(OC)c([C@@H]2OCCC=C[C@H]2C)c1` , test system Rap guanine nucleotide exchange factor 4 (Homo sapiens) (UniProt Q8WZA2), was 0.0675 µM (active)

Readout Potency for `CCSc1nc2ccccc2c(OCc2ccccc2Cl)c1C(=O)OC` , test system Rap guanine nucleotide exchange factor 4 (Homo sapiens) (UniProt Q8WZA2), was inactive

Readout Potency for CCOC(=O)C(Cc1ccc(NC(=O)/C(=C\c2ccccc2)NC(=O)c2ccccc2)cc1)N1C(=O)c2ccccc2C1=O (stereo unspecified) , test system Rap guanine nucleotide exchange factor 4 (Homo sapiens) (UniProt Q8WZA2), was inactive

Readout Potency for `CSC1=NC2(CCN(C(=O)NC3CCCCC3)CC2)N=C1c1ccc(C)cc1` , test system Rap guanine nucleotide exchange factor 4 (Homo sapiens) (UniProt Q8WZA2), was inactive

Readout Potency for `S=C(Nc1ccccc1)Nc1ccccn1` , test system Rap guanine nucleotide exchange factor 4 (Homo sapiens) (UniProt Q8WZA2), was inactive

Readout Potency for `CC(/C=C1\SC(=S)N(NS(=O)(=O)c2ccc(C)cc2)C1=O)=C\c1ccccc1` , test system Rap guanine nucleotide exchange factor 4 (Homo sapiens) (UniProt Q8WZA2), was 47.8 µM (active)

Readout Potency for `COc1ccccc1C(=O)NC(=O)COC(=O)C1CC1` , test system Rap guanine nucleotide exchange factor 4 (Homo sapiens) (UniProt Q8WZA2), was inactive

Readout Potency for COc1ccc(C(Sc2ccccc2)c2ccccc2)cc1OC (stereo unspecified) , test system Rap guanine nucleotide exchange factor 4 (Homo sapiens) (UniProt Q8WZA2), was 21.3 µM (active)

Readout Potency for `COc1ccc(CNC(=O)[C@@H]2CC=C[C@@H]3CCN(Cc4ccccc4)C(=O)[C@@H]32)cc1` , test system Rap guanine nucleotide exchange factor 4 (Homo sapiens) (UniProt Q8WZA2), was inactive

Readout Potency for `Cc1cc(C)cc(-c2nnc(SCc3ccc(C(=O)O)cc3)o2)c1` , test system Rap guanine nucleotide exchange factor 4 (Homo sapiens) (UniProt Q8WZA2), was inactive

Readout Potency for `COc1cccc2sc(N3CCN(c4nc5ccccc5s4)CC3)nc12` , test system Rap guanine nucleotide exchange factor 4 (Homo sapiens) (UniProt Q8WZA2), was inactive
